// reported Conversion(%) for each item listed
- experimental-target: nitrilase bll6402 (Bradyrhizobium diazoefficiens)
- method-notes: Hydrolysis of aromatic α-hydroxy nitriles, conversion by HPLC
- Type: biochemical, Bradyrhizobium japonicum USDA110
- assay-conditions: 25 mM nitrile, 0.16 mg nitrilase in 1 mL, pH 7.2, overnight at 30° C.
// units = %; emit number, no label

N#CC(O)c1ccccc1 (stereo not shown)    98
C[Si](C)(C)OC(C#N)c1ccccc1 (stereo not shown)    99
N#CC(O)c1ccc(O)cc1 (stereo not shown)    88

Attention now shifts to the item below.
Jot down Conversion(%) (nitrilase bll6402 (Bradyrhizobium diazoefficiens)) of N#CC(O)c1cccc(O)c1 (stereo not shown) . 94

====

Recorded Relative Activity by entry
- experimental-target: nitrilase bll6402 (Bradyrhizobium diazoefficiens)
- method-notes: Substrate specificity: specific/relative activity by ammonia release
- Assay type: biochemical, Bradyrhizobium japonicum USDA110
- assay-conditions: 25 mM substrate, pH 7.2, 30° C.; phenylacetonitrile defined as 100
Give the value as a plain number.

The following compounds have reported results that may help.
N#CCCO [3-Hydroxypropionitrile]    1
N#CC(N)c1ccccc1 (stereo not drawn)    3
N#CCCN    1

// fetch Relative Activity; item: CCC(C#N)c1ccccc1 (stereo not drawn) ; system: nitrilase bll6402 (Bradyrhizobium diazoefficiens) 8

Give Relative Activity only, for CCCC#N , using nitrilase bll6402 (Bradyrhizobium diazoefficiens) data. 3

Provide Relative Activity, tested on nitrilase bll6402 (Bradyrhizobium diazoefficiens), for CN(C)C(C#N)c1ccccc1 (stereo not drawn) . 1

Specify the recorded Relative Activity for N#CCCc1ccccc1 [Hydrocinnamonitrile] , system: nitrilase bll6402 (Bradyrhizobium diazoefficiens). 13

# assay system nitrilase bll6402 (Bradyrhizobium diazoefficiens): give Relative Activity of CSCC#N 1

====

- experimental-target: nitrilase bll6402 (Bradyrhizobium diazoefficiens, UniProt Q89GE3)
- Sequence (Q89GE3 whole entry, looked up): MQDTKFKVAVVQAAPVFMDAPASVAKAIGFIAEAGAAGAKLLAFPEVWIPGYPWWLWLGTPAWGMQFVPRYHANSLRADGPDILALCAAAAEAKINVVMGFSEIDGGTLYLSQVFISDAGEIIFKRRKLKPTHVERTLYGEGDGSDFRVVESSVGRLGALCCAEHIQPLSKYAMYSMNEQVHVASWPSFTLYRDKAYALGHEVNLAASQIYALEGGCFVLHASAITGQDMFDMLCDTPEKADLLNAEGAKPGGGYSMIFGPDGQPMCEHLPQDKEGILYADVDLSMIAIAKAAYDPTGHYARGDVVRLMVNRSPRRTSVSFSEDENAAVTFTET
- method-notes: Selective hydrolysis of dinitriles to cyanocarboxylic acids
- Format: biochemical, Bradyrhizobium japonicum USDA110
- assay-conditions: selective hydrolysis of dinitrile
Each entry gets criterion not met if its Yield (%) of cyanocarboxylic acid stays under 90%, and criterion met if its Yield (%) of cyanocarboxylic acid is 90% or above.

N#CCCCC#N    criterion met
N#CCCC#N    criterion met
N#CCCCCC#N    criterion met
CC(C)(C#N)C#N    criterion met

Could you now look at the following compound, please?
Please indicate if the recorded Yield (%) of cyanocarboxylic acid for N#C/C=C/C#N meets or exceeds 90%. criterion not met

====

- experimental-target: nitrilase bll6402 (Bradyrhizobium diazoefficiens, UniProt Q89GE3)
- method-notes: Substrate specificity: specific/relative activity by ammonia release
- Type: biochemical, Bradyrhizobium japonicum USDA110
- assay-conditions: 25 mM substrate, pH 7.2, 30° C.; phenylacetonitrile defined as 100
- Description: The standard assays were carried out by mixing the substrate nitrile and purified nitrilase enzyme in potassium phosphate buffer (100 mM, pH 7.2). The reaction mixture was incubated at 30° C. […] The amount of ammonia produced in the reaction was measured using Bertholet assay as follows: A 100 μL aliquot of each of the following assay reagents was added subsequently: 0.02 M NaOCl, 0.33 M sodium phenoxide and 0.01% sodium nitroprusside solution. […]
observed-property: Relative Activity
Just the number.

Recorded Relative Activity, per entry:
CCCCC#N    6
N#CCCCCC#N    5
CCCCCC#N    16

Enter Relative Activity (test system nitrilase bll6402 (Bradyrhizobium diazoefficiens, UniProt Q89GE3)) for N#Cc1ccccc1 1
